Target: HLA-A*01:01
Test: IEDB peptide-MHC binding, purified MHC/competitive/fluorescence; filed as Kd, often an IC50 or EC50 that approximates it; bounds were set here for any values at or beyond the usual limits of such assays
Details: source organism: Xenopus laevis
pKd: −log10 of the molar value.
QUANTITY_KIND: pKd

RESIDUES: GSASPTPPY
OBSERVED_VALUE: 7.37

* * *

Target: HLA-A*30:01
Assay: IEDB peptide-MHC binding, purified MHC/competitive/radioactivity; filed as Kd, often an IC50 or EC50 that approximates it; bounds were set here for any values at or beyond the usual limits of such assays
Details: source organism: Lymphocytic choriomeningitis virus (strain Armstrong)
pKd: −log10 of the molar value.

RESIDUES: YEDKVWDKY
INEQUALITY_SYMBOL: ≤
pKd: 4.49
--
RESIDUES: TTYLGPLSCK
INEQUALITY_SYMBOL: =
pKd: 6.36

* * *

Target: HLA-A*01:01
Assay: IEDB peptide-MHC binding, purified MHC/direct/fluorescence; filed as Kd, often an IC50 or EC50 that approximates it; bounds were set here for any values at or beyond the usual limits of such assays
Details: source organism: Bacillus anthracis

RESIDUES: TTLRYPIGK
Kd: ≥ 20 µM

* * *

Molecular target: HLA-A*30:01
Test: IEDB peptide-MHC binding, purified MHC/competitive/radioactivity; filed as Kd, often an IC50 or EC50 that approximates it; bounds were set here for any values at or beyond the usual limits of such assays
Conditions: source organism: Mammarenavirus brazilense
pKd: −log10 of the molar value.

RESIDUES: HTASGEHSL
pKd: 5.07
//
RESIDUES: GERSRCYSLY
pKd: 5.27

* * *

Molecular target: HLA-A*11:01
Assay: IEDB peptide-MHC binding, purified MHC/competitive/radioactivity; filed as Kd, often an IC50 or EC50 that approximates it; bounds were set here for any values at or beyond the usual limits of such assays
Conditions: source organism: SARS coronavirus Tor2

RESIDUES: AAMQRKLEK
ENDPOINT_UNIT: nM
Kd: 257
//
RESIDUES: TVWEVQGYK
ENDPOINT_UNIT: nM
Kd: 0.757
//
RESIDUES: AQCFKMFYK
ENDPOINT_UNIT: nM
Kd: 2.52
//
RESIDUES: SVYAWERKK
ENDPOINT_UNIT: nM
Kd: 230
//
RESIDUES: MVMCGGSLY
ENDPOINT_UNIT: nM
Kd: 73.9
//
RESIDUES: AMDEFIQRYK
ENDPOINT_UNIT: nM
Kd: 59
//
RESIDUES: ALCEKALKY
ENDPOINT_UNIT: nM
Kd: 1440
//
RESIDUES: LQFAYSNRNR
ENDPOINT_UNIT: nM
Kd: 1730
//
RESIDUES: VSLLRSTSQK
ENDPOINT_UNIT: nM
Kd: 172
//
RESIDUES: DLPSGFNTLK
ENDPOINT_UNIT: nM
Kd: 1220
//
RESIDUES: IQVTISSYK
ENDPOINT_UNIT: nM
Kd: 10.8
//
RESIDUES: VTLADAGFMK
ENDPOINT_UNIT: nM
Kd: 3.92

* * *

Target: HLA-B*51:01
Experiment: IEDB peptide-MHC binding, purified MHC/competitive/radioactivity; filed as Kd, often an IC50 or EC50 that approximates it; bounds were set here for any values at or beyond the usual limits of such assays
Settings: source organism: SARS coronavirus Tor2

RESIDUES: RPDTRYVLM
ENDPOINT_UNIT: µM
INEQUALITY_SYMBOL: =
Kd: 0.908

RESIDUES: WPWYVWLGFI
ENDPOINT_UNIT: µM
INEQUALITY_SYMBOL: =
Kd: 11.1

RESIDUES: GPLVRKIFV
ENDPOINT_UNIT: µM
INEQUALITY_SYMBOL: ≥
Kd: 22.5

RESIDUES: RPKQRRPQGL
ENDPOINT_UNIT: µM
INEQUALITY_SYMBOL: ≥
Kd: 69.6

RESIDUES: LPPKSSIDAF
ENDPOINT_UNIT: µM
INEQUALITY_SYMBOL: =
Kd: 3.49

RESIDUES: GPKVKYLYF
ENDPOINT_UNIT: µM
INEQUALITY_SYMBOL: =
Kd: 13.6
